tested on: Escherichia coli TOP10; assay: shrunken log2 fold change of peptide-encoding DNA abundance (4.5 h post-induction vs induction); higher = less antimicrobial activity (less host growth inhibition); settings: time post-induction: 4.5 h; library: site-saturation at positions 5, 18, 19, 20
Threshold check on shrunken log2 fold change: at or above 0.2 gives yes, strictly below gives no.

[
  {
    "record-sequence": "RRIRSRPPRLPRPRPRPTQMPRP",
    "label-value": "yes"
  },
  {
    "record-sequence": "RRIRMRPPRLPRPRPRPSKVPRP",
    "label-value": "no"
  },
  {
    "record-sequence": "RRIRSRPPRLPRPRPRPDVNPRP",
    "label-value": "no"
  },
  {
    "record-sequence": "RRIRERPPRLPRPRPRPRLLPRP",
    "label-value": "no"
  },
  {
    "record-sequence": "RRIRHRPPRLPRPRPRPFIVPRP",
    "label-value": "no"
  },
  {
    "record-sequence": "RRIRVRPPRLPRPRPRPRNWPRP",
    "label-value": "yes"
  },
  {
    "record-sequence": "RRIRWRPPRLPRPRPRPHGAPRP",
    "label-value": "no"
  },
  {
    "record-sequence": "RRIRQRPPRLPRPRPRPMRVPRP",
    "label-value": "no"
  }
]

----------
test system: Escherichia coli TOP10; assay: shrunken log2 fold change of peptide-encoding DNA abundance (4.5 h post-induction vs induction); higher = less antimicrobial activity (less host growth inhibition); details: time post-induction: 4.5 h; library: site-saturation at positions 5, 18, 19, 20;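 also: peptides expressed intracellularly from a pBAD plasmid library in pooled LB shake-flask culture, induced with 0.3% L-arabinose, DNA abundance read by NGS, three biological replicates, DESeq2 with apeglm shrinkage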
Threshold check on shrunken log2 fold change: at or above -0.01 gives Satisfied, strictly below gives Not satisfied.

[
  {
    "record-sequence": "RRIRLRPPRLPRPRPRPFGQPRP",
    "experimental-system": "Escherichia coli TOP10",
    "label-value": "Not satisfied"
  },
  {
    "record-sequence": "RRIRIRPPRLPRPRPRPAIPPRP",
    "experimental-system": "Escherichia coli TOP10",
    "label-value": "Not satisfied"
  },
  {
    "record-sequence": "RRIRYRPPRLPRPRPRPDWWPRP",
    "experimental-system": "Escherichia coli TOP10",
    "label-value": "Satisfied"
  },
  {
    "record-sequence": "RRIRSRPPRLPRPRPRPYRGPRP",
    "experimental-system": "Escherichia coli TOP10",
    "label-value": "Not satisfied"
  },
  {
    "record-sequence": "RRIRFRPPRLPRPRPRPGGFPRP",
    "experimental-system": "Escherichia coli TOP10",
    "label-value": "Satisfied"
  },
  {
    "record-sequence": "RRIRHRPPRLPRPRPRPRLLPRP",
    "experimental-system": "Escherichia coli TOP10",
    "label-value": "Not satisfied"
  },
  {
    "record-sequence": "RRIRHRPPRLPRPRPRPDIMPRP",
    "experimental-system": "Escherichia coli TOP10",
    "label-value": "Not satisfied"
  },
  {
    "record-sequence": "RRIRGRPPRLPRPRPRPGKQPRP",
    "experimental-system": "Escherichia coli TOP10",
    "label-value": "Satisfied"
  },
  {
    "record-sequence": "RRIRNRPPRLPRPRPRPAFVPRP",
    "experimental-system": "Escherichia coli TOP10",
    "label-value": "Satisfied"
  },
  {
    "record-sequence": "RRIRLRPPRLPRPRPRPFNDPRP",
    "experimental-system": "Escherichia coli TOP10",
    "label-value": "Satisfied"
  },
  {
    "record-sequence": "RRIRQRPPRLPRPRPRPHWWPRP",
    "experimental-system": "Escherichia coli TOP10",
    "label-value": "Satisfied"
  },
  {
    "record-sequence": "RRIRSRPPRLPRPRPRPDYVPRP",
    "experimental-system": "Escherichia coli TOP10",
    "label-value": "Satisfied"
  },
  {
    "record-sequence": "RRIRQRPPRLPRPRPRPSFGPRP",
    "experimental-system": "Escherichia coli TOP10",
    "label-value": "Satisfied"
  },
  {
    "record-sequence": "RRIRPRPPRLPRPRPRPTYPPRP",
    "experimental-system": "Escherichia coli TOP10",
    "label-value": "Not satisfied"
  },
  {
    "record-sequence": "RRIRPRPPRLPRPRPRPTMIPRP",
    "experimental-system": "Escherichia coli TOP10",
    "label-value": "Not satisfied"
  },
  {
    "record-sequence": "RRIRTRPPRLPRPRPRPQDMPRP",
    "experimental-system": "Escherichia coli TOP10",
    "label-value": "Not satisfied"
  },
  {
    "record-sequence": "RRIRKRPPRLPRPRPRPISKPRP",
    "experimental-system": "Escherichia coli TOP10",
    "label-value": "Not satisfied"
  },
  {
    "record-sequence": "RRIRARPPRLPRPRPRPHKHPRP",
    "experimental-system": "Escherichia coli TOP10",
    "label-value": "Satisfied"
  },
  {
    "record-sequence": "RRIRHRPPRLPRPRPRPKCTPRP",
    "experimental-system": "Escherichia coli TOP10",
    "label-value": "Not satisfied"
  },
  {
    "record-sequence": "RRIRQRPPRLPRPRPRPDCGPRP",
    "experimental-system": "Escherichia coli TOP10",
    "label-value": "Satisfied"
  },
  {
    "record-sequence": "RRIRGRPPRLPRPRPRPCTHPRP",
    "experimental-system": "Escherichia coli TOP10",
    "label-value": "Not satisfied"
  },
  {
    "record-sequence": "RRIRRRPPRLPRPRPRPLAHPRP",
    "experimental-system": "Escherichia coli TOP10",
    "label-value": "Satisfied"
  },
  {
    "record-sequence": "RRIRTRPPRLPRPRPRPTVCPRP",
    "experimental-system": "Escherichia coli TOP10",
    "label-value": "Not satisfied"
  },
  {
    "record-sequence": "RRIRVRPPRLPRPRPRPGPYPRP",
    "experimental-system": "Escherichia coli TOP10",
    "label-value": "Not satisfied"
  },
  {
    "record-sequence": "RRIRMRPPRLPRPRPRPTLHPRP",
    "experimental-system": "Escherichia coli TOP10",
    "label-value": "Satisfied"
  },
  {
    "record-sequence": "RRIRPRPPRLPRPRPRPLWLPRP",
    "experimental-system": "Escherichia coli TOP10",
    "label-value": "Not satisfied"
  },
  {
    "record-sequence": "RRIRQRPPRLPRPRPRPPVDPRP",
    "experimental-system": "Escherichia coli TOP10",
    "label-value": "Not satisfied"
  },
  {
    "record-sequence": "RRIRMRPPRLPRPRPRPQGEPRP",
    "experimental-system": "Escherichia coli TOP10",
    "label-value": "Not satisfied"
  },
  {
    "record-sequence": "RRIRCRPPRLPRPRPRPHKLPRP",
    "experimental-system": "Escherichia coli TOP10",
    "label-value": "Not satisfied"
  },
  {
    "record-sequence": "RRIRMRPPRLPRPRPRPIFNPRP",
    "experimental-system": "Escherichia coli TOP10",
    "label-value": "Not satisfied"
  },
  {
    "record-sequence": "RRIRYRPPRLPRPRPRPNRWPRP",
    "experimental-system": "Escherichia coli TOP10",
    "label-value": "Satisfied"
  },
  {
    "record-sequence": "RRIRFRPPRLPRPRPRPCYVPRP",
    "experimental-system": "Escherichia coli TOP10",
    "label-value": "Not satisfied"
  },
  {
    "record-sequence": "RRIRFRPPRLPRPRPRPVALPRP",
    "experimental-system": "Escherichia coli TOP10",
    "label-value": "Not satisfied"
  },
  {
    "record-sequence": "RRIRWRPPRLPRPRPRPCQCPRP",
    "experimental-system": "Escherichia coli TOP10",
    "label-value": "Satisfied"
  },
  {
    "record-sequence": "RRIRFRPPRLPRPRPRPPSAPRP",
    "experimental-system": "Escherichia coli TOP10",
    "label-value": "Satisfied"
  },
  {
    "record-sequence": "RRIRFRPPRLPRPRPRPREYPRP",
    "experimental-system": "Escherichia coli TOP10",
    "label-value": "Not satisfied"
  },
  {
    "record-sequence": "RRIRARPPRLPRPRPRPARIPRP",
    "experimental-system": "Escherichia coli TOP10",
    "label-value": "Satisfied"
  },
  {
    "record-sequence": "RRIRGRPPRLPRPRPRPMACPRP",
    "experimental-system": "Escherichia coli TOP10",
    "label-value": "Not satisfied"
  },
  {
    "record-sequence": "RRIRGRPPRLPRPRPRPGQEPRP",
    "experimental-system": "Escherichia coli TOP10",
    "label-value": "Satisfied"
  },
  {
    "record-sequence": "RRIRRRPPRLPRPRPRPECLPRP",
    "experimental-system": "Escherichia coli TOP10",
    "label-value": "Satisfied"
  },
  {
    "record-sequence": "RRIRPRPPRLPRPRPRPIMDPRP",
    "experimental-system": "Escherichia coli TOP10",
    "label-value": "Satisfied"
  },
  {
    "record-sequence": "RRIRMRPPRLPRPRPRPKGKPRP",
    "experimental-system": "Escherichia coli TOP10",
    "label-value": "Satisfied"
  },
  {
    "record-sequence": "RRIRERPPRLPRPRPRPYPQPRP",
    "experimental-system": "Escherichia coli TOP10",
    "label-value": "Not satisfied"
  },
  {
    "record-sequence": "RRIRGRPPRLPRPRPRPWAQPRP",
    "experimental-system": "Escherichia coli TOP10",
    "label-value": "Not satisfied"
  },
  {
    "record-sequence": "RRIRCRPPRLPRPRPRPDVRPRP",
    "experimental-system": "Escherichia coli TOP10",
    "label-value": "Not satisfied"
  },
  {
    "record-sequence": "RRIRSRPPRLPRPRPRPPFHPRP",
    "experimental-system": "Escherichia coli TOP10",
    "label-value": "Not satisfied"
  },
  {
    "record-sequence": "RRIRFRPPRLPRPRPRPKAPPRP",
    "experimental-system": "Escherichia coli TOP10",
    "label-value": "Satisfied"
  },
  {
    "record-sequence": "RRIRVRPPRLPRPRPRPTWTPRP",
    "experimental-system": "Escherichia coli TOP10",
    "label-value": "Satisfied"
  },
  {
    "record-sequence": "RRIRSRPPRLPRPRPRPFLRPRP",
    "experimental-system": "Escherichia coli TOP10",
    "label-value": "Not satisfied"
  },
  {
    "record-sequence": "RRIRLRPPRLPRPRPRPYVKPRP",
    "experimental-system": "Escherichia coli TOP10",
    "label-value": "Not satisfied"
  },
  {
    "record-sequence": "RRIRCRPPRLPRPRPRPKVFPRP",
    "experimental-system": "Escherichia coli TOP10",
    "label-value": "Satisfied"
  },
  {
    "record-sequence": "RRIRKRPPRLPRPRPRPERYPRP",
    "experimental-system": "Escherichia coli TOP10",
    "label-value": "Not satisfied"
  },
  {
    "record-sequence": "RRIRHRPPRLPRPRPRPFIYPRP",
    "experimental-system": "Escherichia coli TOP10",
    "label-value": "Not satisfied"
  },
  {
    "record-sequence": "RRIRTRPPRLPRPRPRPRVCPRP",
    "experimental-system": "Escherichia coli TOP10",
    "label-value": "Satisfied"
  },
  {
    "record-sequence": "RRIRNRPPRLPRPRPRPVPVPRP",
    "experimental-system": "Escherichia coli TOP10",
    "label-value": "Not satisfied"
  },
  {
    "record-sequence": "RRIRPRPPRLPRPRPRPNCAPRP",
    "experimental-system": "Escherichia coli TOP10",
    "label-value": "Satisfied"
  },
  {
    "record-sequence": "RRIRHRPPRLPRPRPRPKTNPRP",
    "experimental-system": "Escherichia coli TOP10",
    "label-value": "Not satisfied"
  },
  {
    "record-sequence": "RRIRARPPRLPRPRPRPRAGPRP",
    "experimental-system": "Escherichia coli TOP10",
    "label-value": "Satisfied"
  },
  {
    "record-sequence": "RRIRHRPPRLPRPRPRPMGCPRP",
    "experimental-system": "Escherichia coli TOP10",
    "label-value": "Satisfied"
  },
  {
    "record-sequence": "RRIRRRPPRLPRPRPRPYAKPRP",
    "experimental-system": "Escherichia coli TOP10",
    "label-value": "Satisfied"
  },
  {
    "record-sequence": "RRIRCRPPRLPRPRPRPTMVPRP",
    "experimental-system": "Escherichia coli TOP10",
    "label-value": "Not satisfied"
  },
  {
    "record-sequence": "RRIRPRPPRLPRPRPRPQPAPRP",
    "experimental-system": "Escherichia coli TOP10",
    "label-value": "Satisfied"
  },
  {
    "record-sequence": "RRIRGRPPRLPRPRPRPKWKPRP",
    "experimental-system": "Escherichia coli TOP10",
    "label-value": "Satisfied"
  }
]
